- tgt: Intercellular adhesion molecule (ICAM-1), Integrin alpha-L/beta-2 (Homo sapiens) (UniProt P20701+P05362+P05107)
- testName: Inhibition of HL-60 cell adhesion mediated by interaction of LFA-1 and ICAM-1
- Format: functional, cell-based
- Parameters: concentration or dose not given beside the values
- statedConditions: concentration not given here
assayReadout: inhibition (%)
Give bare numbers, in %.

Example compounds with recorded inhibition:
INSERT INTO measurements (smilesrepr, unitsymbol, observedresult) VALUES
  ('Cc1c(C(=O)OCCCO)cnn1-c1nc(-c2cccc(C(F)(F)F)c2)cs1', '%', 25),
  ('CCc1c(C(=O)NCCCn2ccnc2)cnn1-c1nc(-c2cccc(C(F)(F)F)c2)cs1', '%', 34),
  ('Cc1c(C(=O)NCCCCO)cnn1-c1nc(-c2cccc(C(F)(F)F)c2)cs1', '%', 51);

Batch of 4 compounds: report inhibition for each.
1. Cc1ccc(-c2csc(-n3ncc(C(=O)NCCCO)c3C)n2)cc1
2. CCc1c(C(=O)NCCCN2CCCC2=O)cnn1-c1nc(-c2cccc(C(F)(F)F)c2)cs1
3. CCCc1c(C(=O)NCCCO)cnn1-c1nc(-c2cccc(C(F)(F)F)c2)cs1
4. Cc1c(C(=O)NCCCO)cnn1-c1nc(-c2ccccc2)cs1

Outgoing:
1: 7; 2: 10; 3: 26; 4: 5

# per-item lookup of inhibition; items listed below
1. CCOC(=O)CCCNC(=O)c1cnn(-c2nc(-c3cccc(C(F)(F)F)c3)cs2)c1C
2. Cc1c(C(=O)NCCCCCO)cnn1-c1nc(-c2cccc(C(F)(F)F)c2)cs1
3. COc1cc(-c2csc(-n3ncc(C(=O)NCCCO)c3C)n2)cc(OC)c1OC

Outgoing:
1: 0; 2: 0; 3: 0

* * *

- tgt: Intercellular adhesion molecule (ICAM-1), Integrin alpha-L/beta-2 (Homo sapiens) (UniProt P20701+P05362+P05107)
- testName: Inhibition of HL-60 cell adhesion mediated by interaction of LFA-1 and ICAM-1
- Format: functional, cell-based
- Parameters: concentration or dose not given beside the values
- statedConditions: concentration not given here
assayReadout: inhibition (%)
Give bare numbers, in %.

INSERT INTO measurements (smilesrepr, assayreadout, observedresult) VALUES
  ('COCCCNC(=O)c1cnn(-c2nc(-c3cccc(C(F)(F)F)c3)cs2)c1C', 'inhibition', 48),
  ('Cc1c(C(=O)NCCCO)cnn1-c1nc(-c2cccc(Cl)c2)cs1', 'inhibition', 20);

Switching to the query record.
Incoming: Quick one: inhibition for `O=C(NCCCO)c1cnn(-c2nc(-c3cccc(C(F)(F)F)c3)cs2)c1C(F)(F)F` ?
Outgoing: 5
